molecular target: Adenosine receptor A2a (Homo sapiens); assay: Displacement of [3H]NECA from recombinant human adenosine A2A receptor transfected in CHO cell membranes after 3 hrs by microbeta scintillation counting analysis
Sequence (P29274 whole entry): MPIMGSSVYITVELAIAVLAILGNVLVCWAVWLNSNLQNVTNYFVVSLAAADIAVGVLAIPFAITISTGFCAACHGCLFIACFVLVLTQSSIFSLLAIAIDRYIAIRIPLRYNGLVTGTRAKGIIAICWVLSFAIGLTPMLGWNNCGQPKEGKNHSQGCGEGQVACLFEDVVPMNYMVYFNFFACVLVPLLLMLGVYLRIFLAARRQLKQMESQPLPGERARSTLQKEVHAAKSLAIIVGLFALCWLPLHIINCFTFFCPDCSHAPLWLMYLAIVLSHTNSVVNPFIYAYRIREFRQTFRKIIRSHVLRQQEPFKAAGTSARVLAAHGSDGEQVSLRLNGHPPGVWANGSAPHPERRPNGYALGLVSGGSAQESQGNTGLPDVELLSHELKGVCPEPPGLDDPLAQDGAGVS
pKi: −log10 of the molar value.
Decision: pKi compared against 6; not below it gives T, below it gives F.

Some solved cases for reference:
| COMPOUND | ASSAY TARGET | DISCRETE LABEL |
| --- | --- | --- |
| CCCn1c(-c2ccccc2)nc2c(NC3CCC3)ncnc21 | Adenosine receptor A2a (Homo sapiens) | T |
| CCn1c(-c2ccccc2)nc2c(NC3CCCCC3)ncnc21 | Adenosine receptor A2a (Homo sapiens) | T |
| CCn1c(-c2ccccc2)nc2c(N)ncnc21 | Adenosine receptor A2a (Homo sapiens) | T |
| Cn1c(-c2cccnc2)nc2c(NC3CCCC3)ncnc21 | Adenosine receptor A2a (Homo sapiens) | F |
| CCn1c(-c2ccccc2)nc2c(NC3CCC3)ncnc21 | Adenosine receptor A2a (Homo sapiens) | T |
| Cn1c(-c2ccccc2)nc2c(NC3CCOC3)ncnc21 (stereo unspecified) | Adenosine receptor A2a (Homo sapiens) | F |

Q) Answer whether pKi of Cn1c(-c2ccccc2Cl)nc2c(NC3CCCC3)ncnc21 is greater than or equal to 6.
A) F

Q) Decide: is the reported value of pKi for Cn1c(-c2cccc(Cl)c2)nc2c(NC3CCCC3)ncnc21 equal to or greater than 6?
A) T

Q) Given the entry Cn1c(-c2ccccc2)nc2c(NC3CCCC3)ncnc21 , answer whether its pKi meets or surpasses 6.
A) T

Q) // inclusive: pKi at least 6? input: Cc1ccccc1-c1nc2c(NC3CCCC3)ncnc2n1C
A) F

Q) # check: pKi of COc1ccc(-c2nc3c(NC4CCCC4)ncnc3n2C)cc1 is greater than or equal to 6
A) F

Q) Answer whether pKi of Cc1cccc(-c2nc3c(NC4CCCC4)ncnc3n2C)c1 is greater than or equal to 6.
A) T

Q) Answer whether pKi of Cn1c(-c2ccccc2)nc2c(NC3CCCCC3)ncnc21 is greater than or equal to 6.
A) T

Q) pKi >= 6 for Cn1c(-c2ccc(Cl)cc2)nc2c(NC3CCCC3)ncnc21 ?
A) F

Q) Hello, I need to know if Cn1c(-c2ccccc2)nc2c(NC3CCC3)ncnc21 has measured pKi not below 6. Thanks!
A) T

Q) Please check the record Cn1c(-c2ccccc2)nc2c(N)ncnc21 and state if its pKi is at or above 6.
A) T

Q) Determine whether measured pKi meets or exceeds 6 for Cn1c(-c2ccc(F)cc2)nc2c(NC3CCCC3)ncnc21
A) F

Q) Does the compound Cn1c(-c2ccc(O)cc2)nc2c(NC3CCCC3)ncnc21 have recorded pKi that is 6 or more?
A) T

====

biological target: Adenosine receptor A1 (Mus musculus); assay: Antagonist activity at adenosine A1 receptor in BALB/C mouse ileum assessed as reversal of CCPA-induced reduction in rhythmic spontaneous contractions at 1 uM after 1 hr; assay type: functional
Mark condition met for reported Kb of 70 nM or greater; mark condition not met for anything smaller.

Q) hey, is Kb for this one >= 70 nM? Cc1cccc(-c2nc3c(NC4CCCC4)ncnc3n2C)c1
A) condition not met

Q) Could you tell me if the measured Kb of Cn1c(-c2ccc(O)cc2)nc2c(NC3CCCC3)ncnc21 reaches 70 nM or more?
A) condition not met

Q) Threshold query (Kb >= 70 nM) on Cc1ccc(-c2nc3c(NC4CCCC4)ncnc3n2C)cc1
A) condition met

Q) Check the entry Cn1c(-c2ccccc2)nc2c(NC3CCCC3)ncnc21 : does Kb equal or exceed 70 nM?
A) condition not met

Q) Identify whether the reported Kb of the following compound is 70 nM or greater: Cn1c(-c2ccc(F)cc2)nc2c(NC3CCCC3)ncnc21
A) condition not met
